B1: FAM116A (parent)
chain: TVHEVDIFRCFCPVFLHSQMLWEL

Variants of: B1
Test Method Notes: protein stability index of a GFP-peptide fusion (GPS, HEK-293T) (PSI 1-6); higher = more stable;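 further: lentivirally expressed fusions sorted by FACS into six bins by GFP to DsRed ratio, PSI derived from sequencing read proportions per bin multiplied by bin number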
Condition Details: c terminus: a fixed tail appended
Classification field: enter Yes for protein stability index values not below 2, No for values below it.

Mutant Designation: L21I
Group Label: Yes
--
Mutant Designation: L16C
Group Label: Yes
--
Mutant Designation: F15K
Group Label: Yes
--
Mutant Designation: H3E
Group Label: No
--
Mutant Designation: F8Y
Group Label: Yes
--
Mutant Designation: F11H
Group Label: Yes
--
Mutant Designation: H3T
Group Label: No
--
Mutant Designation: S18F
Group Label: Yes
--
Mutant Designation: H3K
Group Label: Yes
--
Mutant Designation: L24S
Group Label: Yes
--
Mutant Designation: T1I
Group Label: No
--
Mutant Designation: H3P
Group Label: Yes
--
Mutant Designation: V5Y
Group Label: Yes
--
Mutant Designation: H3F
Group Label: Yes
--
Mutant Designation: I7M
Group Label: No
--
Mutant Designation: F15I
Group Label: Yes
--
Mutant Designation: T1K
Group Label: Yes
--
Mutant Designation: V14F
Group Label: Yes
--
Mutant Designation: L16E
Group Label: No
